molecular target: KRAS (aa 1-169) G12C, C51S, C80L, C118S (Homo sapiens (Human), UniProt P01116, C118S/C51S/C80L/G12C); experiment: Biochemical functional assay: SOS1-mediated nucleotide exchange of GDP-loaded KRAS G12C, binding to GST-cRaf RBD, FRET readout; details: 3 hrs pre-incubation with compound at 24° C., SOS1, GTPyS, inhibition of nucleotide exchange
Sequence (P01116 other isoform, or with tags, fused parts or gaps G12C/C51S/C80L/C118S): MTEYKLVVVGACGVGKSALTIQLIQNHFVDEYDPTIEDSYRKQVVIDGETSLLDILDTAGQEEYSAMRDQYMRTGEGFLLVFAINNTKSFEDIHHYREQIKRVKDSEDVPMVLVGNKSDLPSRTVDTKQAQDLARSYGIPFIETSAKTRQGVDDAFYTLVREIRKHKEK
pIC50: −log10 of the molar value.
Would you please tag the item Yes when its pIC50 is 7 or above, and No when it is below?

compound	class.assignment
C=CC(=O)N1CC2CN(c3ncnc4cc(-c5c(O)cccc5F)c5c(c34)OC(C)(C)CC5)CC2C1 (centres unmarked)	No
C=C(F)C(=O)N1CCN(c2nc(OC[C@H]3C[C@@H](OC)CN3C)nc3cc(-c4cccc5cccc(Cl)c45)c4c(c23)OCCC4)C[C@@H]1CC#N (single isomer, unassigned) [Compound B106]	Yes
C=C(F)C(=O)N1CCN(c2nc(OC[C@@H]3C[C@H]4C[C@H]4N3C)nc3cc(-c4cccc5cccc(Cl)c45)c4c(c23)OCCC4)C[C@@H]1CC#N	Yes
C=C(F)C(=O)N1CCN(c2nc(N3CCCC(N(C)C)C3)nc3cc(-c4cccc5cccc(Cl)c45)c4c(c23)OCCC4)C[C@@H]1CC#N (some centres unmarked)	No
C=CC(=O)N1CC2(CCN(c3ncnc4cc(-c5c(O)cccc5F)c5c(c34)OCCC5)CC2)C1	No
C=C(F)C(=O)N1CCN(c2nc(N3CC(CC#N)(N(C)C)C3)nc3cc(-c4cccc5cccc(Cl)c45)c4c(c23)OCCC4)C[C@@H]1CC#N (single isomer, unassigned) [Compound B91]	Yes

Is the recorded value of pIC50 equal to or greater than 7 for this compound? C=C(F)C(=O)N1CCN(c2nc(OCC3C[C@@H](OC)CN3C)nc3cc(-c4cccc5cccc(Cl)c45)c4c(c23)OCCC4)C[C@@H]1CC#N (single isomer, unassigned) [Compound B97]
No

Follow-up item: C=C(F)C(=O)N1CCN(c2nc(OC[C@@H]3CCCN3C)nc3cc(-c4cccc5ccc(Cl)cc45)c4c(c23)OCCC4)C[C@@H]1CC#N
Yes
